# protocol.description: Toxicity liver stage against HepG2, at 10uM
# Format: cell-based
# Parameters: test concentration 10 uM, cell line HepG2-A16-CD81EGFP
# condition.set: human, HepG2-A16-CD81EGFP cells; read-out: INHIBITION
Provide the recorded cytotoxicity at 10 µM for the entries that follow.
Quick note: give the figure in %, leave out the unit.

Lookup: // lookup cytotoxicity at 10 µM for CS(=O)(=O)Nc1ccn(Cc2cccc(F)c2)n1
Found: 13.1

Lookup: Endpoint output: cytotoxicity at 10 µM of Cc1nc[nH]c1C(=O)N1CCC2(CC1)CN(CCN(C)C)C(=O)O2 . Value?
Found: 4.54

Lookup: Give its cytotoxicity at 10 µM value. Item: N#Cc1ccc(OC2CCN(C(=O)c3cncc(Br)c3)CC2)nc1
Found: 3.05

Lookup: // lookup cytotoxicity at 10 µM for CCCNC(=O)C(C)NC(=O)Nc1ccccc1SC(F)F (configuration not stated)
Found: 5.09

Lookup: Could you share which cytotoxicity at 10 µM value was measured for CCn1cncc1-c1nc2c([nH]1)CC(C)(C)CNC2=O ?
Found: 7.51

Lookup: Entry Cc1cc2ccncc2n1CC1(O)CCN(C(=O)c2ccncc2)CC1 has what cytotoxicity at 10 µM?
Found: 7.53

Lookup: What does the record list as cytotoxicity at 10 µM for CSc1ccc(CN(CCO)C(=O)CCNC(C)=O)cc1 ?
Found: 5.42

Lookup: Which cytotoxicity at 10 µM value belongs to Cc1nnc(CCNC(=O)C2CC(=O)N(C(C)(C)C)C2)s1 (configuration not stated) ?
Found: -3.27

Lookup: Can you look up the measured cytotoxicity at 10 µM of Cc1[nH]/c(=N\C(=O)c2csc(NCC(C)C)n2)sc1C for me?
Found: 47.4

Lookup: Looking for the measured cytotoxicity at 10 µM of CCOCCCn1c(NC(=O)c2cc(C)no2)nc2ccccc21 , can you help?
Found: -5.69

Lookup: Please look up its cytotoxicity at 10 µM: COc1nn(C)c2c1CCCN(C(=O)c1cnccn1)C2
Found: -84.3

Lookup: Record request: cytotoxicity at 10 µM value, item CCOc1ccccc1C(=O)Oc1cc(=O)n2cccc(C)c2n1
Found: 22.1

Reference source: ChEMBL document CHEMBL4513216
